Please respond with reported (αSN1-1)/(αSN1), 24 hours, 11° C. for every item in the list.
Biological target: T1, alpha-s1 casein from Bos taurus
T1 chain: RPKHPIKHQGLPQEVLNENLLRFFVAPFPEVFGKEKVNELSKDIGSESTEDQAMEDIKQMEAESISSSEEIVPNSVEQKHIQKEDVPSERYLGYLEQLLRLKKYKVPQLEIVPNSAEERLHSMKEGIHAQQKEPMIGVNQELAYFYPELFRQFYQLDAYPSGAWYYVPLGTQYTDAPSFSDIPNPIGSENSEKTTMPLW
One number for each entry.

In the examples that follow, each entry is paired with its recorded (αSN1-1)/(αSN1), 24 hours, 11° C..
camel chymosin variant #166 (I297T) (protein) GKVAREPLTSYLDSQYFGKIYIGTPPQEFTVVFDTGSSDLWVPSIYCKSNVCKNHHRFDPRKSSTFRNLGKPLSIHYGTGSMEGFLGYDTVTVSNIVDPNQTVGLSTEQPGEVFTYSEFDGILGLAYPSLASEYSVPVFDNMMDRHLVARDLFSVYMDRNGQGSMLTLGAIDPSYYTGSLHWVPVTLQQYWQFTVDSVTINGVAVACVGGCQAILDTGTSVLFGPSSDILKIQMAIGATENRYGEFDVNCGNLRSMPTVVFEINGRDYPLSPSAYTSKDQGFCTSGFQGDNNSELWTLGDVFIREYYSVFDRANNRVGLAKAI = 3.1
camel chymosin variant #142 (F223Q) (protein) GKVAREPLTSYLDSQYFGKIYIGTPPQEFTVVFDTGSSDLWVPSIYCKSNVCKNHHRFDPRKSSTFRNLGKPLSIHYGTGSMEGFLGYDTVTVSNIVDPNQTVGLSTEQPGEVFTYSEFDGILGLAYPSLASEYSVPVFDNMMDRHLVARDLFSVYMDRNGQGSMLTLGAIDPSYYTGSLHWVPVTLQQYWQFTVDSVTINGVAVACVGGCQAILDTGTSVLQGPSSDILKIQMAIGATENRYGEFDVNCGNLRSMPTVVFEINGRDYPLSPSAYTSKDQGFCTSGFQGDNNSELWILGDVFIREYYSVFDRANNRVGLAKAI = 1.7
camel chymosin variant #159 (L295I) (protein) GKVAREPLTSYLDSQYFGKIYIGTPPQEFTVVFDTGSSDLWVPSIYCKSNVCKNHHRFDPRKSSTFRNLGKPLSIHYGTGSMEGFLGYDTVTVSNIVDPNQTVGLSTEQPGEVFTYSEFDGILGLAYPSLASEYSVPVFDNMMDRHLVARDLFSVYMDRNGQGSMLTLGAIDPSYYTGSLHWVPVTLQQYWQFTVDSVTINGVAVACVGGCQAILDTGTSVLFGPSSDILKIQMAIGATENRYGEFDVNCGNLRSMPTVVFEINGRDYPLSPSAYTSKDQGFCTSGFQGDNNSEIWILGDVFIREYYSVFDRANNRVGLAKAI = 1.8
camel chymosin variant #148 (Q288N) (protein) GKVAREPLTSYLDSQYFGKIYIGTPPQEFTVVFDTGSSDLWVPSIYCKSNVCKNHHRFDPRKSSTFRNLGKPLSIHYGTGSMEGFLGYDTVTVSNIVDPNQTVGLSTEQPGEVFTYSEFDGILGLAYPSLASEYSVPVFDNMMDRHLVARDLFSVYMDRNGQGSMLTLGAIDPSYYTGSLHWVPVTLQQYWQFTVDSVTINGVAVACVGGCQAILDTGTSVLFGPSSDILKIQMAIGATENRYGEFDVNCGNLRSMPTVVFEINGRDYPLSPSAYTSKDQGFCTSGFNGDNNSELWILGDVFIREYYSVFDRANNRVGLAKAI = 1.3

For each listed entry, give its (αSN1-1)/(αSN1), 24 hours, 11° C..
1. camel chymosin variant #149 (Q288R) (protein) GKVAREPLTSYLDSQYFGKIYIGTPPQEFTVVFDTGSSDLWVPSIYCKSNVCKNHHRFDPRKSSTFRNLGKPLSIHYGTGSMEGFLGYDTVTVSNIVDPNQTVGLSTEQPGEVFTYSEFDGILGLAYPSLASEYSVPVFDNMMDRHLVARDLFSVYMDRNGQGSMLTLGAIDPSYYTGSLHWVPVTLQQYWQFTVDSVTINGVAVACVGGCQAILDTGTSVLFGPSSDILKIQMAIGATENRYGEFDVNCGNLRSMPTVVFEINGRDYPLSPSAYTSKDQGFCTSGFRGDNNSELWILGDVFIREYYSVFDRANNRVGLAKAI
2. camel chymosin variant #138 (F223E) (protein) GKVAREPLTSYLDSQYFGKIYIGTPPQEFTVVFDTGSSDLWVPSIYCKSNVCKNHHRFDPRKSSTFRNLGKPLSIHYGTGSMEGFLGYDTVTVSNIVDPNQTVGLSTEQPGEVFTYSEFDGILGLAYPSLASEYSVPVFDNMMDRHLVARDLFSVYMDRNGQGSMLTLGAIDPSYYTGSLHWVPVTLQQYWQFTVDSVTINGVAVACVGGCQAILDTGTSVLEGPSSDILKIQMAIGATENRYGEFDVNCGNLRSMPTVVFEINGRDYPLSPSAYTSKDQGFCTSGFQGDNNSELWILGDVFIREYYSVFDRANNRVGLAKAI

**A:**
1. 3.3
2. 1.4

For each listed entry, give its (αSN1-1)/(αSN1), 24 hours, 11° C..
1. camel chymosin variant #144 (F223Y) (protein) GKVAREPLTSYLDSQYFGKIYIGTPPQEFTVVFDTGSSDLWVPSIYCKSNVCKNHHRFDPRKSSTFRNLGKPLSIHYGTGSMEGFLGYDTVTVSNIVDPNQTVGLSTEQPGEVFTYSEFDGILGLAYPSLASEYSVPVFDNMMDRHLVARDLFSVYMDRNGQGSMLTLGAIDPSYYTGSLHWVPVTLQQYWQFTVDSVTINGVAVACVGGCQAILDTGTSVLYGPSSDILKIQMAIGATENRYGEFDVNCGNLRSMPTVVFEINGRDYPLSPSAYTSKDQGFCTSGFQGDNNSELWILGDVFIREYYSVFDRANNRVGLAKAI
2. camel chymosin variant #157 (D290T) (protein) GKVAREPLTSYLDSQYFGKIYIGTPPQEFTVVFDTGSSDLWVPSIYCKSNVCKNHHRFDPRKSSTFRNLGKPLSIHYGTGSMEGFLGYDTVTVSNIVDPNQTVGLSTEQPGEVFTYSEFDGILGLAYPSLASEYSVPVFDNMMDRHLVARDLFSVYMDRNGQGSMLTLGAIDPSYYTGSLHWVPVTLQQYWQFTVDSVTINGVAVACVGGCQAILDTGTSVLFGPSSDILKIQMAIGATENRYGEFDVNCGNLRSMPTVVFEINGRDYPLSPSAYTSKDQGFCTSGFQGTNNSELWILGDVFIREYYSVFDRANNRVGLAKAI

**A:**
3.3
1.7

Cited source for all entries: patent US20150140169
